target or system: T1, recombinant gp120 of HIV-1 strain IIIb (HIV-1 strain IIIb, UniProt P04578 33-511)
T1 construct: domain: gp120; also called IIIb-derived gp120; gp 120 (IIIB strain)
measurement notes: SPR BIAcore, gp120 on chip
Attribute: kon

Sample answers from the record:
binder: composite Fab 4H/L42-1 (Fab, V domains shown) VH: LEQSGAEVKKPGASVKVSCQASGYRFSNFVIHWVRQAPGQRFEWMGWINPYNGNKEFSAKFQDRVTFTADTSANTAYMELRSLRSADTAVYYCARVGPYSWDDSPQDNYYMDVWGKGTTVIVSS VL: ELTQSPGTLSLSPGERATFSCRSSHQLDGSRVAWYQHKPGQAPRLVIHGVSNRASGISDRFSGSGSGTDFTLTITRVEPEDFALYYCQQYGWPFYTFGQGTKLERKR
kon: 296000 M⁻¹ s⁻¹

binder: composite Fab H101/L42-1 (Fab, V domains shown) VH: LEQSGAEVKKPGASVKVSCQASGYRFSHFTVHWVRQAPGQRFEWHGWINPYNGNKEFSAKFQDRVTFTADTSANTAYMELRSLRSADTAVYYCARVGEWGWHQRRYDNYYMDVWGKGTTVIVSS VL: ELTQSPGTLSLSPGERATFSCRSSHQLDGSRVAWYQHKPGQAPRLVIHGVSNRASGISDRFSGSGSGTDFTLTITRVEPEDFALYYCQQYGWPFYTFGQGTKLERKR
kon: 134000 M⁻¹ s⁻¹

Okay, next one:
Recorded result, composite Fab H101/L42-16 (Fab, V domains shown) VH: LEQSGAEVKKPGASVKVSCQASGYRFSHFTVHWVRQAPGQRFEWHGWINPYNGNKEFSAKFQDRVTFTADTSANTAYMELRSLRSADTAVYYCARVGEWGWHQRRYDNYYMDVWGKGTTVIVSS VL: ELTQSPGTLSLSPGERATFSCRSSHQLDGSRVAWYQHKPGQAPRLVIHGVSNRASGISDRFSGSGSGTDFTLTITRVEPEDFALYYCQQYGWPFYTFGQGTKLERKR , kon: 69100 M⁻¹ s⁻¹
